Biological target: T1, AtGRP2-CSD1-90 H39A (Arabidopsis thaliana, UniProt Q41188 1-90, H39A)
T1 sequence: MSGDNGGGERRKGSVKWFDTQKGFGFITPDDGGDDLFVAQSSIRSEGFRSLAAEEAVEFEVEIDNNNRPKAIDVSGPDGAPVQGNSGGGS
Experiment: fluorescence anisotropy; 20 mM sodium phosphate pH 6.5, 50 mM NaCl, 25 C (fluorescence); NMR titrations in the same buffer plus 250 uM PMSF, 3 mM NaN3, 5% D2O, 298 K
Conditions: protein: recombinant; tags: N-terminal Trx(6 aa)-His6-TEV tag, cleaved; label: 5'-rhodamine
property.measured: Kd (µM)
Give bare numbers, in µM.

Need Kd, item TTTTTTT (ssDNA) [Rho-T7]
210
